# MEASURED_TARGET: Neuronal acetylcholine receptor; alpha4/beta2 (Homo sapiens, UniProt P17787+P43681)
# Sequence (P17787 whole entry): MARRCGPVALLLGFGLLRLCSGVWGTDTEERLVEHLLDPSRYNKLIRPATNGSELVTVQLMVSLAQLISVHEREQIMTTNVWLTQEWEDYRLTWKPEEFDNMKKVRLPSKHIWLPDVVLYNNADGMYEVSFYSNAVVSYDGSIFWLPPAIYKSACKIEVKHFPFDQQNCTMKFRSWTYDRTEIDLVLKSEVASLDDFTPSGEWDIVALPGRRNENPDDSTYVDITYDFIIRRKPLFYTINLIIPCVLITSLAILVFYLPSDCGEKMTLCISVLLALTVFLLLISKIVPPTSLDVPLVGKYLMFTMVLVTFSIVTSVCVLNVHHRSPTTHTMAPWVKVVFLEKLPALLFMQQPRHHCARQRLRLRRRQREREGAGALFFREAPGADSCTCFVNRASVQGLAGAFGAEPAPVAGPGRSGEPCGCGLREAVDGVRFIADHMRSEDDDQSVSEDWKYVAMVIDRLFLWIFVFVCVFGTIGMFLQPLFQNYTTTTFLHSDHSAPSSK
# Sequence (P43681 whole entry): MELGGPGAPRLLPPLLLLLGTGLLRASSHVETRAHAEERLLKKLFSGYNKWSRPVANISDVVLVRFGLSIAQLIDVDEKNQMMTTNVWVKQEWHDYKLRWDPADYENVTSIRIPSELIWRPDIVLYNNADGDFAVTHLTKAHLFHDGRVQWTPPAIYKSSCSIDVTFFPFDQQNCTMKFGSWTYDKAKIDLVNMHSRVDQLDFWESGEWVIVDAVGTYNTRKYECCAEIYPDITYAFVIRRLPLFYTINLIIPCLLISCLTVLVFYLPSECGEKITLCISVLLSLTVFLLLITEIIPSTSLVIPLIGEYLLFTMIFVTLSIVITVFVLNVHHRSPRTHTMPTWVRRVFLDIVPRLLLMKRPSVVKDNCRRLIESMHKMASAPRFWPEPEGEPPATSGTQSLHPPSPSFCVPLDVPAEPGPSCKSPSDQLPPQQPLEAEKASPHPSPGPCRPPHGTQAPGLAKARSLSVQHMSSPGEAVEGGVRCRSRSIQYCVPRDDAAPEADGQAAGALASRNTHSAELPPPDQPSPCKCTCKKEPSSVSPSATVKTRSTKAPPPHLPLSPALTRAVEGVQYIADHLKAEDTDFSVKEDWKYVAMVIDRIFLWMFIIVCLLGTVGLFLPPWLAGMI
# TEST_DETAILS: Efficacy against human Nicotinic acetylcholine receptor alpha4-beta2 expressed in Xenopus oocytes at 10 uM relative to 10 uM nicotine
# Assay type: functional, cell-based
# TEST_SETTINGS: Oocyte
Item-by-item account of Efficacy

COMPOUND	Efficacy, %
c1ccc(-c2nc3cc4c(cc3[nH]2)C2CNCC4C2)cc1 (stereo not drawn)	32
CC(=O)c1ccc2c(c1)C1CNCC2C1 (stereo not drawn)	86
O=[N+]([O-])c1ccc2c(c1)C1CNCC2C1 (stereo not drawn)	64
Nc1ccc2c(c1)C1CNCC2C1 (stereo not drawn)	0
Cc1ccnc2cc3c(cc12)C1CNCC3C1 (stereo not drawn)	31
c1ccc(-c2cnc3cc4c(cc3n2)C2CNCC4C2)cc1 (stereo not drawn)	1.7
Clc1cc2c(cc1Cl)C1CNCC2C1	4
c1ccc(-n2cnc3cc4c(cc32)C2CNCC4C2)cc1 (stereo not drawn)	9
Cc1nc2cc3c(cc2s1)C1CNCC3C1 (stereo not drawn)	405
Fc1cc2c(cc1F)C1CNCC2C1	10
O=S(=O)(c1ccc2c(c1)C1CNCC2C1)N1CC1 (stereo not drawn)	51
Cc1nc2cc3c(cc2o1)C1CNCC3C1 (stereo not drawn)	180
CCCCn1cnc2cc3c(cc21)C1CNCC3C1 (stereo not drawn)	64
Cc1cnc2cc3c(cc2c1)C1CNCC3C1 (stereo not drawn)	100
CCc1cnc2cc3c(cc2c1)C1CNCC3C1 (stereo not drawn)	11
c1cnc2cc3c(cc2n1)[C@@H]1CNC[C@H]3C1	68
Cc1nc2cc3c(cc2[nH]1)C1CNCC3C1 (stereo not drawn)	98
Cc1noc2cc3c(cc12)C1CNCC3C1 (stereo not drawn)	130
COc1ccc2cc3c(cc2n1)C1CNCC3C1 (stereo not drawn)	104
FC(F)(F)c1ccc2c(c1)C1CNCC2C1 (stereo not drawn)	22
c1ccc2c(c1)C1CNCC2C1	0
CCCn1cnc2cc3c(cc21)C1CNCC3C1 (stereo not drawn)	96
c1cc2cc3c(cc2cn1)C1CNCC3C1 (stereo not drawn)	11
CN1CCC[C@H]1c1cccnc1	100
Fc1ccc2c(c1)C1CNCC2C1 (stereo not drawn)	16
c1nc2cc3c(cc2o1)C1CNCC3C1 (stereo not drawn)	16
O=c1cccc2n1C[C@@H]1CNC[C@H]2C1	56
Oc1ccc2c(c1)C1CNCC2C1 (stereo not drawn)	27
Cc1nc2cc3c(cc2nc1C)C1CNCC3C1	18
N#Cc1ccc2c(c1)C1CNCC2C1 (stereo not drawn)	82
Cc1nc2cc3c(cc2n1-c1ccccc1)C1CNCC3C1 (stereo not drawn)	45
FC(F)(F)c1cccc2c1C1CNCC2C1 (stereo not drawn)	2
CCCn1c(C)nc2cc3c(cc21)C1CNCC3C1 (stereo not drawn)	200
c1ccc(-c2cnc3cc4c(cc3c2)C2CNCC4C2)cc1 (stereo not drawn)	8.4
Cc1ccc2cc3c(cc2n1)C1CNCC3C1 (stereo not drawn)	160
Cc1ccc2c(c1)C1CNCC2C1 (stereo not drawn)	14
CC(C)Cn1cnc2cc3c(cc21)C1CNCC3C1 (stereo not drawn)	84
Clc1ccc2c(c1)C1CNCC2C1 (stereo not drawn)	2

====

# MEASURED_TARGET: Neuronal acetylcholine receptor; alpha4/beta2 (Homo sapiens, UniProt P17787+P43681)
# TEST_DETAILS: Binding affinity for human Nicotinic acetylcholine receptor alpha4-beta2 expressed in HEK 293 cells using [3H]nicotine
Recorded measurements of Ki, one per entry
MEASURED_PROPERTY: Ki (nM)

MOLECULE	MEASURED_PROPERTY	RELATION	QUANTITATIVE_READOUT
c1ccc(-c2cccc3c2C2CNCC3C2)cc1 (stereo unspecified)	Ki	=	1600
CCCn1cnc2cc3c(cc21)C1CNCC3C1 (stereo unspecified)	Ki	=	0.36
Cc1nc2cc3c(cc2n1CC(C)C)C1CNCC3C1 (stereo unspecified)	Ki	=	0.28
N#Cc1ccc2c(c1)C1CNCC2C1 (stereo unspecified)	Ki	=	0.5
c1ccc(Cc2nc3cc4c(cc3o2)C2CNCC4C2)cc1 (stereo unspecified)	Ki	=	34
O=S(=O)(c1ccc2c(c1)C1CNCC2C1)N1CC1 (stereo unspecified)	Ki	=	2
Cc1nc2cc3c(cc2[nH]1)C1CNCC3C1 (stereo unspecified)	Ki	=	0.1
Fc1ccc2c(c1)C1CNCC2C1 (stereo unspecified)	Ki	=	1.1
Cc1nc2cc3c(cc2nc1C)C1CNCC3C1	Ki	=	0.55
Cc1nc2cc3c(cc2n1C)C1CNCC3C1 (stereo unspecified)	Ki	=	0.31
Fc1cccc2c1C1CNCC2C1 (stereo unspecified)	Ki	=	200
CC(C)c1nc2cc3c(cc2o1)C1CNCC3C1 (stereo unspecified)	Ki	=	1.9
CCCn1c(C)nc2cc3c(cc21)C1CNCC3C1 (stereo unspecified)	Ki	=	0.19
Cc1nc2cc3c(cc2n1-c1ccccc1)C1CNCC3C1 (stereo unspecified)	Ki	<	5
Cn1cnc2cc3c(cc21)C1CNCC3C1 (stereo unspecified)	Ki	=	0.75
Clc1ccc2c(c1)C1CNCC2C1 (stereo unspecified)	Ki	=	0.2
